Data provenance: patent US20110256153A1

assay.target: T1, hCD37-M3 (human/murine chimera, UniProt P11049 1-281)
T1 construct: stably expressed on 300-19 cells; also called hCD37-M3 variant
T1 chain: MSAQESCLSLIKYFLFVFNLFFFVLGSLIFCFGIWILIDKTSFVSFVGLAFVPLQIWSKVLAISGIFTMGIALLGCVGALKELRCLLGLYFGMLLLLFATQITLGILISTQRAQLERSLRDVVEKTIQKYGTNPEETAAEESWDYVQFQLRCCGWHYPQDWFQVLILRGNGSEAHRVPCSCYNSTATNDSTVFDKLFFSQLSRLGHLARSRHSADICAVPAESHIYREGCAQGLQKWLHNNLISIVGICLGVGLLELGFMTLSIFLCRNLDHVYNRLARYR
measurement.description: flow cytometry, 300-19 cells expressing hCD37-M3, 1.5 µg/mL antibody
measured.quantity: binding result

binder="muCD37-56 (antibody, mouse IgG1, kappa, V domains shown, Murine hybridoma antibody) VH: DVQLQESGPDLVKPSQSLSLTCTVTGYSITSGFAWHWIRQFPGNKLEWMGYIHYSGGTNYNPSLKSRVSITRDTSKNQFFLQLNSVTTEDTATYYCARGYYGFGAWFAYWGQGTLVPVSA VL: QIVLTQSPAFMSASPGDKVTMTCSASSSVTYMHWYQQKSGTSPKRWIYDTSKLASGVPARFSGGGSGTSYSLTISTMEAEDAATYYCQQWISDPPTFGGGTKLEIKR" reading=binds
